The molecules below each have a reported pIC50 tested on Vasopressin V2 receptor (Homo sapiens); the values come from various publications.
Conceptually, pIC50 converts a concentration in mol/L into minus its log10.

# pIC50 lookup, item Cc1cc(C(=O)N2Cc3ccc(C(=O)N(C)CC4COC(=O)O4)n3Cc3ccccc32)ccc1-c1ccccc1C(F)(F)F (stereo not drawn) 6.45

Moving on to the next molecule: Cc1cc(C(=O)N2Cc3ccc(C(=O)N(C)Cc4ccc[n+]([O-])c4)n3Cc3ccccc32)ccc1-c1ccccc1C(F)(F)F 6.33

Same question for Cc1cc(C(=O)N2Cc3ccc(C(=O)N4CCCN(C)CC4)n3Cc3ccccc32)ccc1-c1ccccc1C(F)(F)F please. 5.64

Queued: CC1CCCC=C1c1ccc(C(=O)N2Cc3cccn3Cc3ccccc32)cc1 (stereo not drawn) 6.53

Let's switch to this molecule now.
What measured pIC50 goes with COc1ccccc1-c1ccc(C(=O)N2Cc3ccc(C(=O)N4CCN(CCN5CCOCC5)CC4)n3Cc3ccccc32)cc1C ? 6.72

* * *

pIC50 values for UniProtKB P30518, compiled from several publications.
pIC50 is a log-scale quantity: -log10 of the concentration expressed in molar.

Consider the molecule shown here: CC1=C(c2ccc(C(=O)N3Cc4cccn4Cc4ccccc43)cc2)CCCC1 What is its recorded pIC50? 6.79

Now the molecule COc1ccccc1-c1ccc(C(=O)N2Cc3ccc(C(=O)N(C)CC(O)CO)n3Cc3ccccc32)cc1C (stereo not shown) 6.69

Moving on to another molecule below.
Return reported pIC50; argument: COc1ccccc1-c1ccc(C(=O)N2Cc3ccc(C(=O)N4CCN(c5ccncc5)CC4)n3Cc3ccccc32)cc1C 6.26
